Data provenance is the RNAGym collection of RNA variant scans (doi:10.1101/gad.245936.114).

B1: tRNA (parent)
chain: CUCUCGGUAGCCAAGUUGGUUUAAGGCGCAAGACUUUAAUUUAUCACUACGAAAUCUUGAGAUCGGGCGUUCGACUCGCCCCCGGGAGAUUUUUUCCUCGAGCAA

- Variants of: B1
- Assay procedure: nonsense suppression (GFP-seq) (ratio to wild type); higher = more function; SUP4oc tRNA, yeast GFP reporter sort-seq
This sample holds only a part of the variants without activity.
Examples of variants with documented nonsense suppression follow.
Property name: nonsense suppression

INSERT INTO assay_data (variant_identifier, property_name, limit_qualifier, recorded_number) VALUES
  ('G28C U63C', 'nonsense suppression', '=', 0.114),
  ('U22G A31U', 'nonsense suppression', '=', 0.0872),
  ('C34A A54U U71A C75A', 'nonsense suppression', '≤', 0.026),
  ('U17A A24C', 'nonsense suppression', '=', 0.902),
  ('A13G A24U', 'nonsense suppression', '=', 0.0411),
  ('A31U', 'nonsense suppression', '=', 0.177),
  ('C3U G73A', 'nonsense suppression', '=', 0.0656),
  ('G6A A13U', 'nonsense suppression', '=', 0.0458),
  ('C5U C79U', 'nonsense suppression', '=', 0.0439),
  ('C1U G78A', 'nonsense suppression', '=', 0.0525),
  ('G25C U63A', 'nonsense suppression', '≤', 0.026),
  ('U55C A74G', 'nonsense suppression', '=', 0.144),
  ('G6A A23G G25C U63C C80G', 'nonsense suppression', '≤', 0.026),
  ('A23U C29G', 'nonsense suppression', '≤', 0.026),
  ('C3A U4C', 'nonsense suppression', '=', 0.191),
  ('A31G U57C G78A G86A', 'nonsense suppression', '≤', 0.026),
  ('U63C G78U', 'nonsense suppression', '=', 0.0499),
  ('U8C U21A', 'nonsense suppression', '≤', 0.026),
  ('A9G C72A', 'nonsense suppression', '=', 0.0268),
  ('U4G G61U', 'nonsense suppression', '=', 0.804),
  ('A13U A54U', 'nonsense suppression', '=', 0.728),
  ('A13C G28U', 'nonsense suppression', '=', 0.0283);
